System: KPC-2 producing K. pneumoniae (ATCC BAA-1705)
PROCEDURE SUMMARY: Synergistic broth micro-dilution MIC (checkerboard)
Format: cell-based, Klebsiella pneumoniae
TEST CONDITIONS: BLI at 64 μg/mL; ATCC BAA-1705
Provide the recorded MIC of Cefepime in combination with BLI for the entries that follow.

Which value of MIC of Cefepime in combination with BLI has been reported for O=C(O)[C@H]1/C(=C/CO)O[C@@H]2CC(=O)N21 [Clavulanic acid] in the records?
8 µg/mL

Look up MIC of Cefepime in combination with BLI: C[C@]1(Cn2ccnn2)[C@H](C(=O)O)N2C(=O)C[C@H]2S1(=O)=O [Tazobactam]
32 µg/mL

What measured MIC of Cefepime in combination with BLI goes with C[n+]1ccn(C[C@@]2(C)[C@H](C(=O)[O-])N3C(=O)C[C@H]3S2(=O)=O)n1 [Compound-1] ?
<0.5 µg/mL

// lookup MIC of Cefepime in combination with BLI for CC1(C)[C@H](C(=O)O)N2C(=O)C[C@H]2S1(=O)=O [Sulbactam]
64 µg/mL
